Assay: Quantitative highthroughput screen to assess conditional lethalithy of NOMO1 cells grown in RPMI1640 with dialyzed fetal bovine serum (RPMI+ds) (AID 1963877); note: nearly all actives have a fitted effect of over 30% in size; note: potency is the fitted concentration of half-maximal effect
Conditions: NOMO1 in RPMI+dialyzed FBS viability, ATP luminescence, 48 h; series mostly up to 45.8 µM
Results filed as inconclusive are left out. Active and inactive are the calls of the source. Calls come from the whole dose curve; as a rule, active = well fitted cell-killing curve with a large enough effect; inconclusive = small, poorly fitted or top-dose-only effect; inactive = flat fitted curve, though single readings scatter.
assay endpoint: Potency

| molecule | value |
| --- | --- |
| COC(=O)C[C@](O)(CCCC(C)(C)O)C(=O)O[C@@H]1C(OC)=C[C@]23CCCN2CCc2cc4c(cc2[C@H]13)OCO4 | inactive |
| C[C@H]1C[C@H]2[C@@H]3CCC4=CC(=O)C=C[C@]4(C)[C@@H]3C(=O)C[C@]2(C)[C@@]1(O)C(=O)CO | inactive |
| Cc1cccc(-c2[nH]c(C(C)(C)C)nc2-c2ccc3c(c2)OCO3)n1 | 9.35 µM (active) |
| Cn1c(N2CCCCS2(=O)=O)nc(C(=O)NCc2ccc(F)cc2)c(O)c1=O | inactive |
| Cc1ccc2c(c1)C(=O)[C@]1(O)CCN(c3ccccc3)C1=N2 | inactive |
| Cn1c(Nc2ccc(C(F)(F)F)cc2)nc2cc(Oc3ccnc(-c4ncc(C(F)(F)F)[nH]4)c3)ccc21 | 23.5 µM (active) |
| COC1=C(OC)C(=O)C(CC=C(C)CCC=C(C)CCC=C(C)CCC=C(C)CCC=C(C)CCC=C(C)CCC=C(C)CCC=C(C)CCC=C(C)CCC=C(C)C)=C(C)C1=O | inactive |
| C[C@H](CCC(=O)O)[C@H]1CC[C@H]2[C@H]3[C@@H](CC[C@]12C)[C@@]1(C)CC[C@@H](O)C[C@H]1C[C@@H]3O | inactive |
| CC(=O)SCC(Cc1ccccc1)C(=O)NCC(=O)OCc1ccccc1 (configuration not stated) | 6.62 µM (active) |
| N#CC1(c2ccc(NC(=O)c3cccnc3NCc3ccncc3)cc2)CCCC1 | inactive |
| CC(C)(C)C(=O)Oc1ccc(S(=O)(=O)Nc2ccccc2C(=O)NCC(=O)O)cc1 | inactive |
| COC(=O)N[C@H](C(=O)N1CCC[C@@H]1c1ncc(-c2ccc(-c3ccc(-c4cnc([C@@H]5CCCN5C(=O)[C@@H](NC(=O)OC)C(C)C)[nH]4)cc3)cc2)[nH]1)C(C)C | inactive |
| COc1cccc2nc(-c3cccs3)nc(NN3C(=O)C=C(C)C3=O)c12 | 1.32 µM (active) |
| OCCCNc1cc(-c2ccnc(Nc3cccc(Cl)c3)n2)ccn1 | 0.209 µM (active) |
| NC(=O)c1ccc(-c2nc(-c3ccc4c(c3)OCO4)c(-c3ccccn3)[nH]2)cc1 | inactive |
| CC1(C)SCCN(S(=O)(=O)c2ccc(OCC#CCO)cc2)[C@@H]1C(=O)NO | inactive |
| Cc1c(NC(=O)c2ccc(C(C)(C)C)cc2)cccc1-c1cn(C)c(=O)c(Nc2ccc(C(=O)N3CCOCC3)cc2)n1 | inactive |

---

Assay: Quantitative highthroughput screen to assess conditional lethalithy of NOMO1 cells grown in RPMI1640 with dialyzed fetal bovine serum (RPMI+ds) (AID 1963877); note: nearly all actives have a fitted effect of over 30% in size
Settings: NOMO1 in RPMI+dialyzed FBS viability, ATP luminescence, 48 h; series mostly up to 45.8 µM
Method: Assay Provider: Jason Cantor Ph.D. Department of Biochemistry University of Wisconsin-Madison, Madison, WI, USA Chemical screening studies have identified drug sensitivities across hundreds of cancer cell lines but most putative therapeutics fail to translate. […] Sets of conditional anticancer compounds spanned phases of clinical development and included non-oncology drugs were assessed. […] 6; Detection; Luminescence, Viewlux PerkinElmer. […]
Records with an inconclusive call do not appear. Activity calls are given as the source filed them. Calls follow the shape of the dose curve; as a rule, active = well fitted cell-killing curve with a large enough effect; inconclusive = small, poorly fitted or top-dose-only effect; inactive = flat fitted curve, though single readings scatter.
Labels: active, inactive

| compound | label class |
| --- | --- |
| CN(C)CC(=O)N1CCC(c2ccc(NC(=O)c3ncc(C#N)[nH]3)c(C3=CCCCC3)c2)CC1 | inactive |
| C=CC(=O)Nc1cc2c(Nc3ccc(F)c(Cl)c3)ncnc2cc1C#CC(C)(C)N1CCN(C)CC1 | active |
| C[C@@H]1COCCN1c1cc(C2(S(C)(=N)=O)CC2)nc(-c2ccnc3[nH]ccc23)n1 (some centres not stated) | active |
| CC(=O)N[C@@H]1[C@H](O[C@@H]2c3ccc(c(Cl)c3)Oc3cc4cc(c3O[C@H]3O[C@H](CO)[C@@H](O)[C@H](O)[C@H]3NC(=O)CCCCCCCC(C)C)Oc3ccc(cc3Cl)C[C@H]3NC(=O)[C@H](N)c5ccc(O)c(c5)Oc5cc(O)cc(c5)[C@H](NC3=O)C(=O)N[C@H]4C(=O)N[C@H]3C(=O)N[C@@H]2C(=O)N[C@@H](C(=O)O)c2cc(O)cc(O[C@H]4O[C@H](CO)[C@@H](O)[C@H](O)[C@H]4O)c2-c2cc3ccc2O)O[C@H](CO)[C@@H](O)[C@@H]1O | inactive |
| O=c1[nH]c(-c2ccc(C(F)(F)F)cc2)nc2c1CSCC2 | inactive |
| CNCc1ccc(-c2[nH]c3cc(F)cc4c3c2CCNC4=O)cc1 | inactive |
| CC(C)c1nn(-c2c(Cl)cccc2Cl)c2nc(Cc3ccc(OCCO)cc3)[nH]c(=O)c12 | active |
